biological target: farnesyltransferase (Rattus norvegicus, UniProt Q02293+Q04631); construct: The enzyme can be purified according to Cell, 62: 81-88 (1990), utilizing steps one, two, and three; from tissue; host or cells: rat brain; assay: Inhibition of farnesyltransferase (3H-farnesyldiphosphate / H-Ras filter assay); format: biochemical; details: test compound at 10^−8 M; 3H-farnesyldiphosphate 0.6 μM, H-Ras 5.0 μM, 37° C., 30 minutes
result_type: inhibition at 0.01 µM (%)

input: Fill in reported inhibition at 0.01 µM for this entry: Cn1cncc1C(O)(COc1ccc(C#N)cc1-c1cc(F)cc(F)c1)c1ccc(C#N)cc1 (centres unmarked)
output: 94

input: Fill in reported inhibition at 0.01 µM for this entry: Cn1cncc1C(F)(COc1ccc(C#N)cc1-c1cccc2cccnc12)c1ccc(C#N)cc1 (centres unmarked)
output: 73

input: Fill in reported inhibition at 0.01 µM for this entry: Cn1cncc1C(O)(COc1ccc(C#N)cc1-c1cccc2cccnc12)c1ccc(C#N)cc1 (centres unmarked)
output: 83

input: Fill in reported inhibition at 0.01 µM for this entry: Cn1cncc1C(O)(COc1ccc(C#N)cc1-c1cccc(OC(F)(F)F)c1)c1ccc(C#N)cc1 (centres unmarked)
output: 95

input: Fill in reported inhibition at 0.01 µM for this entry: Cn1cncc1C(O)(COc1ccc(C#N)cc1-c1cccc(F)c1)c1ccc(C#N)cc1 (centres unmarked)
output: 96

input: Fill in reported inhibition at 0.01 µM for this entry: Cn1cncc1C(O)(COc1ccc(C#N)cc1-c1ccc2c(c1)OCO2)c1ccc(C#N)cc1 (centres unmarked)
output: 98

input: Fill in reported inhibition at 0.01 µM for this entry: Cn1cncc1C(O)(COc1ccc(C#N)cc1-c1cc(Cl)cc(Cl)c1)c1ccc(C#N)cc1 (centres unmarked)
output: 96

input: Fill in reported inhibition at 0.01 µM for this entry: Cn1cncc1C(O)(COc1ccc(C#N)cc1-c1ccc(F)c(F)c1)c1ccc(C#N)cc1 (centres unmarked)
output: 96

Just for reference, patent US20020115640A1 is where these values come from.
